- Target Entity: U1A L49A:F56A (UniProt P09012 10-89, L49A;F56A)
- Sequence (P09012 10-89 L49A/F56A): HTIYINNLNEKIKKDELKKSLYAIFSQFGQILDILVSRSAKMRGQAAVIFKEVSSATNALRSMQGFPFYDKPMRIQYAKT
- Assay Details: fluorescence polarization
Readout: Kd (µM)
Please give a number only; it is taken to be in µM.

Problem: Look up Kd for this binder: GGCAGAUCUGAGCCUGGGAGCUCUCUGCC (structured_RNA) [TAR RNA]
Result: 123
